test system: A549; assay: Cytotoxicity against human A549 cells by SRB assay; assay type: functional, cell-based
pIC50: −log10 of the molar value.
endpoint label: pIC50

[[record]]
smiles_string = "CC(C)=CC(=O)NC1=C(CC2=C(NC(=O)C=C(C)C)N3[C@@H](C)[C@H]4O[C@H]4[C@@]3(C)C2=O)C(=O)[C@]2(C)C[C@H](O)[C@H](C)N12"
experimental_system = "A549"
endpoint_label = "pIC50"
endpoint_value = 5.96

[[record]]
smiles_string = "CC(C)=CC(=O)NC1=CC(=O)[C@]2(C)C[C@H](O)[C@H](C)N12"
experimental_system = "A549"
endpoint_label = "pIC50"
endpoint_value = 3.30

[[record]]
smiles_string = "CC(C)=CC(=O)NC1=C(CC2=C(NC(=O)C=C(C)C)N3[C@@H](C)[C@H]4O[C@H]4[C@@]3(C)C2=O)C(=O)[C@]2(C)[C@H](O)C[C@H](C)N12"
experimental_system = "A549"
endpoint_label = "pIC50"
endpoint_value = 4.69


Every entry's value here was drawn from ChEMBL document CHEMBL4130510.
